Items are presented alongside their recorded Inhibitory Rate (%).
Test system: mushroom-derived tyrosinase
test description: Tyrosinase activity inhibition (dopachrome formation from L-dopa, absorbance at 490 nm)
Type: biochemical
recorded conditions: inhibitor concentration 0.2 mM; 37° C., 30 minutes
quantity measured: Inhibitory Rate (%)

compound	test target	meas value
OC[C@H]1O[C@@H](Oc2cc3c(O)cc(O)cc3[o+]c2-c2cc(O)c(O)c(O)c2)[C@H](O)[C@@H](O)[C@@H]1O [D3G (Example 2), delphinidin-3-glucoside]	mushroom-derived tyrosinase	67.5
CC1O[C@@H](OC[C@H]2OC(Oc3cc4c(O)cc(O)cc4[o+]c3-c3cc(O)c(O)c(O)c3)[C@H](O)C(O)C2O)C(O)C(O)[C@H]1O (stereo partly drawn) [D3R (Example 2), delphinidin-3-rutinoside]	mushroom-derived tyrosinase	70.1
O=c1cc(CO)occ1O [Kojic Acid, reference compound]	mushroom-derived tyrosinase	34.7
N[C@@H](CS)C(=O)O [L-Cysteine, reference compound]	mushroom-derived tyrosinase	29.8
OC[C@H]1O[C@@H](Oc2cc3c(O)cc(O)cc3[o+]c2-c2ccc(O)c(O)c2)[C@H](O)[C@@H](O)[C@@H]1O [C3G (Example 2), cyanidin-3-glucoside]	mushroom-derived tyrosinase	45.0
N[C@@H](CCC(=O)N[C@@H](CS)C(=O)NCC(=O)O)C(=O)O [Glutathione, reference compound]	mushroom-derived tyrosinase	13.2
